# system name: T1, Human MASP-3 (CCP1-CCP2-SP S664A) (human, labelled with NHS-PEG4-Biotin (sites not given))
# T1 construct: Biotinylated for the cross-reactivity ELISA; also called N-terminally Flag-tagged human MASP-3 (CCP1-CCP2-SP S664A); not shown: N-terminal Flag-tag
# T1 chain: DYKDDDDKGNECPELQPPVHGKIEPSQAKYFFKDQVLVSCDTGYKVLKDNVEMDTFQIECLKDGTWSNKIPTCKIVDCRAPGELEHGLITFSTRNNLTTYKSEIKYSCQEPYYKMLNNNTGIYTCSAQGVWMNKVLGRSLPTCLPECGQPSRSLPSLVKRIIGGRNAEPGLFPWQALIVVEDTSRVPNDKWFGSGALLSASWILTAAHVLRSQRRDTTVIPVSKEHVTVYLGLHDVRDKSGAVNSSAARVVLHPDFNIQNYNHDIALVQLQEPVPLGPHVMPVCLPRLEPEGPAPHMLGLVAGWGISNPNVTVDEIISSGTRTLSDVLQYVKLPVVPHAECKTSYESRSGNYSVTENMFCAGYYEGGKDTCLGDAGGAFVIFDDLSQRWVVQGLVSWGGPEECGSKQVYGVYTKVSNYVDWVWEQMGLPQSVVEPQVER
# run description: ELISA, antibody captured by goat anti-human IgG, 8 nM biotinylated antigen, streptavidin-HRP
reported endpoint: absorbance at 405 nm after background subtraction (absorbance at 405 nm)
Could you give me the number in absorbance at 405 nm? Just the number is fine.

Worked cases, answers included:
binder="MAS0102dd (antibody, human IgG4 S228P, kappa, V domains shown, Rabbit/human chimeric antibody: rabbit variable regions recombined with F760G4 and kOMTC constant regions; also called anti-MASP-1 chimeric mAb MAS0102dd) VH: QSVEESGGRLVTPGTPLTLTCTVSGFSLSSYAMSWVRQAPGKGLEWIGIITNLDNTYYANWAKGRFTISKTSTTVDLKITSPTTEDTAAYLCARERIKRKYSYDDYGGWAFDPWGPGTLVTVSS VL: QVLTQTPSSVSGPVGGTVTINCQAIENIYRSLAWYQQKPGQPPKLLIYDTSDLASGVPSRFSGSGSGTEYTLTISGVQCDDAATYYCQSYYYSSVTYNAFGGGTKVEIKR" value_unit="absorbance at 405 nm" experimental_value=-0.027
binder="MAS0141aa (antibody, human IgG4 S228P, kappa, V domains shown, Rabbit/human chimeric antibody: rabbit variable regions recombined with F760G4 and kOMTC constant regions; also called anti-MASP-1 chimeric mAb MAS0141aa) VH: QSVEESGGRLVTPGTPLTLTCTASGFSLINYYMTWVRQAPGKGLEWIGIINTDGGTYYASWAKGRFTISRTSTTVDLKMTSLTTEDTATYFCARGVFTGGWTGMRTNLWGPGTLVTVSS VL: DVVMTQTPASVEAAVGGTVTIKCQASEDIYILLAWYQQKPGQPPKLLIYAASNLESGVPSRFKGSGSGTEFTLTISDLECADAATYYCQCTYGSSSSNAFGGGTKVEIKR" value_unit="absorbance at 405 nm" experimental_value=-0.147

[ask] Please indicate absorbance at 405 nm after background subtraction recorded for MAS0116aa (antibody, human IgG4 S228P, kappa, V domains shown, Rabbit/human chimeric antibody: rabbit variable regions recombined with F760G4 and kOMTC constant regions; also called anti-MASP-1 chimeric mAb MAS0116aa) VH: QSLEESGGRLVTPGTPLTLTCTASGFSLSSCYMSWVRQAPGEGLEWIGTIYTGSGATYYASWAKGRFTVSITSTTVDLKITSPTTEDTATYFCARAIYPGSSSSNLCAFDLWGPGTLVTVSS VL: QVLTQTPASVSAAVGGTVTINCQASQSVYDNNWLAWYQQKPGQPPKLLIYQASSLASGVPSRFKGSGSGAQFTLTISDLECDDAATYFCQGYYAGVLYSFGGGTKVEIKR
[reply] 0.055
